- MEASUREMENT NOTES: Liver microsome (LM) intrinsic clearance, rat
- Type: in vitro ADME
MEASUREMENT TYPE: LM CLint (μL/min/mg/protein)

The cases that follow already have their LM CLint on record.
{"columns": ["SMILES TEXT", "RESULT VALUE"],
 "data": [
  ["C[C@H](Nc1nc(C(=O)N2CC[C@@H](O)C2)c2sccc2n1)c1ccccn1", 4.86],
  ["C[C@H](Nc1nc(C(=O)N2CC[C@@H](F)C2)c2sccc2n1)c1cccnc1", 20.43]
]}

[I] C[C@H](Nc1nc(C(=O)N2CC(F)(F)C2)c2sccc2n1)c1cccnc1
[II] C[C@H](Nc1nc(C(=O)N2CCCC2)c2sccc2n1)c1ccccn1
[III] C[C@H](Nc1nc(C(=O)N2CC[C@@H](O)C2)c2sccc2n1)c1cccnc1
[IV] O=C(c1nc(NCc2cncc(F)c2)nc2ccsc12)N1CCCC1
[V] Cc1cncc(CNc2nc(C(=O)N3CCCC3)c3sccc3n2)c1
Task: Task for the reader: rank each entry by its LM CLint, from the minimum upward. In your reply, arrange the labels in the requested order.
Result: III, II, I, IV, V

[P] C[C@H](Nc1nc(C(=O)N2CCC2)c2sccc2n1)c1cccnc1
[Q] C[C@H]1CCN(C(=O)c2nc(N[C@@H](C)c3cccnc3)nc3ccsc23)C1
[R] C[C@H](NC(=O)c1nc(N[C@@H](C)c2ccccn2)nc2ccsc12)c1ccccn1
Task: Given 3 compounds, produce a descending ranking by LM CLint. In your reply, arrange the labels in the requested order.
Result: Q, R, P
(Q: 71.55 μL/min/mg/protein, R: 39.84 μL/min/mg/protein, P: 27.86 μL/min/mg/protein)

These measurements were taken from patent US11254686B1.
